All values here come from patent US20090252680A1.

Assay: Measurement of transferability into brain and clearance
Conditions: rats, intravenous injection (tail vein), 2 min after injection
PROPERTY_MEASURED: Radioactive accumulation per unit weight of brain, after 2 min. (% ID/g)
Express your answer in % ID/g, writing the number without its unit.

Param item = CN(C)c1ccc(-c2cn3cc([123I])ccc3n2)cc1 [[^123I]-IMPY, reference compound] ; retrieve measured Radioactive accumulation per unit weight of brain, after 2 min.. 1.19

Moving on to the next compound: Fc1ccc(-c2cn3cc([123I])ccc3n2)cc1 1.00

Moving on to the next compound: COc1ccc2nc(-c3ccc([123I])cc3)cn2c1 1.26

Moving on to the next compound: COc1ccc(-c2cn3cc([123I])ccc3n2)cc1 1.04
